A collection of binders and their measured koff
Target: T1, Cynomolgus TNFR2-His (Sino 90102-C08H) (cynomolgus monkey, UniProt A0A2K5VET2 132-366)
T1 construct: Bought protein; also called cynomolgus monkey TNFR2; recombinant cynomolgus monkey TNFR2 protein; not shown: His tag
T1 sequence: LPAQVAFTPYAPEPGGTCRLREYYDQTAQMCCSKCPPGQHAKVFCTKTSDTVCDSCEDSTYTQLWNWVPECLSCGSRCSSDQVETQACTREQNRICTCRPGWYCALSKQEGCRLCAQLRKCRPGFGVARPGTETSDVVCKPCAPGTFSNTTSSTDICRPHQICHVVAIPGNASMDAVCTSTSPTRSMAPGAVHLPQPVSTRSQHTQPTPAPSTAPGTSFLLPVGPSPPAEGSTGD
Assay: SPR (Biacore T200), antibody captured on Protein A chip
Note: unit s⁻¹ is implicit; provide only the numeric part.

Some entries whose results are on file:
binder	koff / s⁻¹
219-Hu2 (antibody, V domains shown, also called VH4 + VL5) VH: QVQLVQSGAEVKKPGSSVKVSCKASGYSFTNYWMNWVRQAPGQGLEWMGMIHPSDTETRLNQNFKDKATITADKSTSTAYMELSSLRSEDTAVYYCARGEGLGAARSVSMDYWGQGTLVTVSS VL: DIQMTQSPSSLSASVGDRVTITCRASQDISNYLNWYQQKPDGTVKLLIYYTAILHSGVPSRFSGSGSGTDYSLTISSLQPEDFATYFCQQGNTLPWTFGQGTKVEIK	0.000412
224-WT (antibody, V domains shown, Human-murine chimeric wild-type molecule; also called human-murine chimeric antibody WT of #224) VH: EVQLQESGPEIVKPGASVKLSCTASGFNNKDIYMHWVKQRPEQGLEWIGRIDPATGNTKHDPKFQDKATLSSDTSSNTAYLQFSSLTSEDTAVYYCAHSPYGDFGAMDYWGQGTTVTVSS VL: DIQMTQSPAIMSASLGERVTMTCTASSSVSSNYLHWYQQKPGSSPKLWIYSTSNLPSGVPARFSGSGSGTSYSLTISSMEAEDAATYYCHQYHRSPWTFGGGTKLEIK	0.000409

Please turn your attention to the following entry.
Give the reported value of koff for this record: 219-Hu3 (antibody, V domains shown, also called VH5 + VL5) VH: QVQLVQSGAEVKKPGSSVKVSCKASGYSFTNYWMNWVRQAPGQGLEWMGMIHPSDTETRLNQNFKDRVTITADKSTSTAYMELSSLRSEDTAVYYCARGEGLGAARSVSMDYWGQGTLVTVSS VL: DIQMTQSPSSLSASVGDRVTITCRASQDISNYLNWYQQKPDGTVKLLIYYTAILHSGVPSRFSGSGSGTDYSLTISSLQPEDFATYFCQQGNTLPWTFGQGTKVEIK
0.000399

The reported numbers originate from patent US20240109974A1.
